The reported measurements were obtained from patent US20210380703A1.

# TGT: T1, Human ACVR2A (human, UniProt P27037 20-135, limits assumed)
# T1 construct: also called activin receptor, type II A
# TEST PROTOCOL: ELISA; note: test concentration or dose not given here
OBSERVATION TYPE: optical density (OD)
# unit: OD | format: bare number

Answered examples (4):
[[record]]
binder = "370_H06 (antibody, V domains shown, VH/VL only) VH: EVQLLESGGGLVQPGGSLRLSCAASGFTFDDYSMNWVRQAPGKGLEWVANINYNGGYTGYADSVKGRFTISRDNSKNTLYLQMNSLRAEDTAVYYCARGATWHDTHLDYWGQGTLVTVSS VL: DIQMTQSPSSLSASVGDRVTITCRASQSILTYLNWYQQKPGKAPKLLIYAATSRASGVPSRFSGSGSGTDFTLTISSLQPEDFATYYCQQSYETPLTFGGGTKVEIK"
observation_type = "optical density"
unit_annotation = "OD"
measured = 3.22

[[record]]
binder = "376_H04 (antibody, V domains shown, VH/VL only) VH: EVQLLESGGGLVQPGGSLRLSCAASGFTFSSYSMNWVRQAPGKGLEWVAGINYNGGYKGYADSVKGRFTISRDNSKNTLYLQMNSLRAEDTAVYYCARGANWHDTALDYWGQGTLVTVSS VL: DIQMTQSPSSLSASVGDRVTITCRASQSILTYVNWYQQKPGKAPKLVIYAATSRASGVPSRFSGSGSGTDFTLTISSLQPEDFATYYCQQSYDLPLTFGGGTKVEIK"
observation_type = "optical density"
unit_annotation = "OD"
measured = 3.31

[[record]]
binder = "367_C08 (antibody, V domains shown, VH/VL only) VH: EVQLLESGGGLVQPGGSLRLSCAASGFTFDSYSMHWVRQAPGKGLEWVAGINYNGGYTSYADSVKGRFTISRDNSKNTLYLQMNSLRAEDTAVYYCARGATWHDTHLDYWGQGTLVTVSS VL: DIQMTQSPSSLSASVGDRVTITCRASQSILTYLNWYQQKPGKAPKLLIYAATSLASGVPSRFSGSGSGTDFTLTISSLQPEDFATYYCQQSDSNPLTFGGGTKVEIK"
observation_type = "optical density"
unit_annotation = "OD"
measured = 1.12

[[record]]
binder = "365_E09 (antibody, V domains shown, VH/VL only) VH: EVQLLESGGGLVQPGGSLRLSCAASGFTFSSYGMHWVRQAPGKGLEWVASINYNSGYKSYADSVKGRFTISRDNSKNTLYLQMNSLRAEDTAVYYCARSANWHDTALDYWGQGTLVTVSS VL: DIQMTQSPSSLSASVGDRVTITCRASQSILTYVNWYQQKPGKAPKLVIYAATSRASGVPSRFSGSGSGTDFTLTISSLQPEDFATYYCQQSDDSPLTFGGGTKVEIK"
observation_type = "optical density"
unit_annotation = "OD"
measured = 1.91


// next item, optical density requested
query: State its optical density for this binder: 365_H03 (antibody, V domains shown, VH/VL only) VH: EVQLLESGGGLVQPGGSLRLSCAASGFTFDDYGMNWVRQAPGKGLEWVAGINYNGGYKSYADSVKGRFTISRDNSKNTLYLQMNSLRAEDTAVYYCARSANWHDTALDYWGQGTLVTVSS VL: DIQMTQSPSSLSASVGDRVTITCRASQSILSYVNWYQQKPGKAPKLVIYAATSLHSGVPSRFSGSGSGTDFTLTISSLQPEDFATYYCQQSYNNPLTFGGGTKVEIK
result: 2.32
